# Tested on: Du-145 (prostate)
# Experiment description: SRB antiproliferative assay on Du-145 cells
# Format: cell-based, human
# Conditions: SRB assay
Endpoint label: IC50 (nM)

>>> df
                                   molecule  endpoint_label  experimental_result
0  N.N.[Cl][Pt][Cl] [Cisplatin, reference compound]            IC50                 1600

---

# System: A549 (lung adenocarcinoma)
# Experiment description: SRB antiproliferative assay on A549 cells
# Assay type: cell-based, human
pIC50: −log10 of the molar value.
Endpoint label: pIC50

In [3]: df
Out[3]:
                                   compound  experimental_result
0  N.N.[Cl][Pt][Cl] [Cisplatin, reference compound]                 5.37

Data origin: paper PMC6471197
